# condition set: in ethanol, 308.15 K
assay endpoint: solubility (mole fraction)

INSERT INTO assay_data (smiles_repr, result) VALUES
  ('CCOc1ncc(C)c2c1[C@H](c1ccc(C#N)cc1OC)C(C(N)=O)=C(C)N2', 0.00261);

###

# condition set: in isopropyl acetate, 273.15 K
assay endpoint: solubility (mole fraction)

INSERT INTO assay_data (smiles_repr, result) VALUES
  ('CCOc1ncc(C)c2c1[C@H](c1ccc(C#N)cc1OC)C(C(N)=O)=C(C)N2', 0.000378);

###

# condition set: in methanol, 273.15 K
assay endpoint: solubility (mole fraction)

INSERT INTO measurements (smiles_repr, result) VALUES
  ('CCOc1ncc(C)c2c1[C@H](c1ccc(C#N)cc1OC)C(C(N)=O)=C(C)N2', 0.004);

###

# condition set: in ethanol, 303.15 K
assay endpoint: solubility (mole fraction)

INSERT INTO assay_data (smiles_repr, assay_endpoint, quantitative_result) VALUES
  ('CCOc1ncc(C)c2c1[C@H](c1ccc(C#N)cc1OC)C(C(N)=O)=C(C)N2', 'solubility (mole fraction)', 0.00233);

###

# condition set: in isopropanol, 293.15 K
assay endpoint: solubility (mole fraction)

INSERT INTO assay_data (smiles_repr, assay_endpoint, quantitative_result) VALUES
  ('CCOc1ncc(C)c2c1[C@H](c1ccc(C#N)cc1OC)C(C(N)=O)=C(C)N2', 'solubility (mole fraction)', 0.000682);

###

# condition set: in dichloromethane, 288.15 K
assay endpoint: solubility (mole fraction)

INSERT INTO assay_data (smiles_repr, quantitative_result) VALUES
  ('CCOc1ncc(C)c2c1[C@H](c1ccc(C#N)cc1OC)C(C(N)=O)=C(C)N2', 0.00622);

###

# condition set: in dichloromethane, 303.15 K
assay endpoint: solubility (mole fraction)

INSERT INTO assay_data (smiles_repr, assay_endpoint, quantitative_result) VALUES
  ('CCOc1ncc(C)c2c1[C@H](c1ccc(C#N)cc1OC)C(C(N)=O)=C(C)N2', 'solubility (mole fraction)', 0.00766);

###

# condition set: in isopropanol, 273.15 K
assay endpoint: solubility (mole fraction)

INSERT INTO results (smiles_repr, assay_endpoint, quantitative_result) VALUES
  ('CCOc1ncc(C)c2c1[C@H](c1ccc(C#N)cc1OC)C(C(N)=O)=C(C)N2', 'solubility (mole fraction)', 0.000229);

###

# condition set: in isopropyl acetate, 293.15 K
assay endpoint: solubility (mole fraction)

INSERT INTO results (smiles_repr, quantitative_result) VALUES
  ('CCOc1ncc(C)c2c1[C@H](c1ccc(C#N)cc1OC)C(C(N)=O)=C(C)N2', 0.000728);

###

# condition set: in ethyl acetate, 308.15 K
assay endpoint: solubility (mole fraction)

INSERT INTO measurements (smiles_repr, assay_endpoint, quantitative_result) VALUES
  ('CCOc1ncc(C)c2c1[C@H](c1ccc(C#N)cc1OC)C(C(N)=O)=C(C)N2', 'solubility (mole fraction)', 0.00211);

###

# condition set: in dichloromethane, 308.15 K
assay endpoint: solubility (mole fraction)

INSERT INTO measurements (smiles_repr, assay_endpoint, quantitative_result) VALUES
  ('CCOc1ncc(C)c2c1[C@H](c1ccc(C#N)cc1OC)C(C(N)=O)=C(C)N2', 'solubility (mole fraction)', 0.00814);
